# ASSAY: Cell culture media unbound percentage and stability by rapid equilibrium dialysis (Example C)
# Format: in vitro ADME
# CONDITION_PARAMETERS: bovine, cell assay medium (RPMI-1640 with 10% fetal bovine serum), pH 7.4, rapid equilibrium dialysis, 4 hours at 37° C., read-out: Cell Culture Media Binding (% unbound)
Structures can show the parent of a compound that is named as a salt.
QUANTITY_MEASURED: fraction unbound at 4 h, 1 µM
Answers are plain numbers.

Reference set, count: 2
MOLECULE	TEST_RESULT
Cc1nc2cc(S(=O)(=O)N(C)c3ccc([C@H]4C[C@@H](OCC(F)F)C[C@@H](C(=O)Nc5ccc(C(F)(F)F)cc5F)[C@@H]4C(=O)O)cc3)ccc2n1C (relative stereo)	0.0991
Cc1nc2cc(S(=O)(=O)N(C)c3ccc([C@@H]4CCC[C@H](COc5ccc(C(F)(F)F)cc5)[C@H]4C(=O)O)cc3)cc([C@@H]3CCCNC3)c2n1C (relative stereo) [Example 207, hydrochloride]	0.0138

--- query ---
Item Cc1nc2cc(S(=O)(=O)N(C)c3ccc([C@H]4C[C@@H](N5CCOCC5)C[C@@H](C(=O)Nc5ccc(C(F)(F)F)cc5F)[C@@H]4C(=O)O)cc3)ccc2n1C (single isomer, unassigned) has what recorded fraction unbound at 4 h, 1 µM?
0.224

====

# SYSTEM_UNDER_TEST: recombinant full-length WRN protein (1-1432) (Homo sapiens)
# Construct: recombinant full-length WRN protein (1-1432)
# Sequence (Q14191 whole entry): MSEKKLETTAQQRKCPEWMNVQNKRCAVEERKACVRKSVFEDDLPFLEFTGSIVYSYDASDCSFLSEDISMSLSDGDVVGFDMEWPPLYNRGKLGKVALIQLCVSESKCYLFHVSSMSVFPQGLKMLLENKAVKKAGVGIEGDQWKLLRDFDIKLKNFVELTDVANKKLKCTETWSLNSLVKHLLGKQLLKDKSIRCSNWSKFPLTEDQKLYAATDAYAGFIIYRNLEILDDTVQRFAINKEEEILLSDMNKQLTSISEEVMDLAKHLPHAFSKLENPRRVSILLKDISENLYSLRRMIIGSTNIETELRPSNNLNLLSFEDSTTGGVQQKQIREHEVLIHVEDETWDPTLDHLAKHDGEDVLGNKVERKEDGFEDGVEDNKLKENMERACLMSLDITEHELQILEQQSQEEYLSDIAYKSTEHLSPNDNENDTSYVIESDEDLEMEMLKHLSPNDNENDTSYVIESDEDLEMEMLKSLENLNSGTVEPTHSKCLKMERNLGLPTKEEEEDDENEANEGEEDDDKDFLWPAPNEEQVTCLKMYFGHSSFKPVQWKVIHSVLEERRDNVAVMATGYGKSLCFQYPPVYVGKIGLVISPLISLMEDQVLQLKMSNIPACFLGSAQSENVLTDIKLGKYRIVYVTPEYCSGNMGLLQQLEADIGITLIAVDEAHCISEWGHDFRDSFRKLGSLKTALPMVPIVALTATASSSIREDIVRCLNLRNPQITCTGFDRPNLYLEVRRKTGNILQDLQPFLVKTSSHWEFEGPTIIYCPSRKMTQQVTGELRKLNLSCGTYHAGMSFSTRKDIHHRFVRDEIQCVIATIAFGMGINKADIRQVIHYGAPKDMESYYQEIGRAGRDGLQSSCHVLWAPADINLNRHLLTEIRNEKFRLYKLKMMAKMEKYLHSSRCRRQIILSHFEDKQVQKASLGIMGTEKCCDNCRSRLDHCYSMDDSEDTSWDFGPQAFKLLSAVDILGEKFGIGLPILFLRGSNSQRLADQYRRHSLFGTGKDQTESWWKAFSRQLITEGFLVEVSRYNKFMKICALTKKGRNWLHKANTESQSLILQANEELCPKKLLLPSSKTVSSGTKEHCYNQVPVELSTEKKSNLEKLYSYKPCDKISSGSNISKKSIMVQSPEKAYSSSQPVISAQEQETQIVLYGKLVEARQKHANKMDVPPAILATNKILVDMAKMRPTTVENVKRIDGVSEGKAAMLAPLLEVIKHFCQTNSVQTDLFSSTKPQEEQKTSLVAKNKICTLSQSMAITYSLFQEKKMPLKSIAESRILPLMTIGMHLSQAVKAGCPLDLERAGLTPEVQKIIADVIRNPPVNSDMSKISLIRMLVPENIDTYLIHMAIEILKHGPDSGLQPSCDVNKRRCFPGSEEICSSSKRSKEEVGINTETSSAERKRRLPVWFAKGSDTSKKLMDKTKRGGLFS
# ASSAY: WRN unwinding activity, fluorogenic 384-well assay (Example A)
# Assay type: biochemical
# CONDITION_PARAMETERS: WRN unwinding activity, 4 hr; Table 2; read-out: 4 hr UNW pIC50 (converted)
Where a name gives a salt, the structure may show the parent alone.
Assignment: determine reported IC50 for the given molecules.
One number for each entry, in nM.

Reference set, count: 4
MOLECULE	IC50 [nM]
CN(c1ccc([C@H]2CCC[C@@H](C(=O)Nc3ccc(C(F)(F)F)cc3F)[C@@H]2C(=O)O)cc1)S(=O)(=O)c1ccc2[nH]cnc2c1 (single isomer, unassigned) [Example 85]	251
Cc1cscc1-c1ccc([C@H]2CCC[C@@H](C(=O)Nc3ccc(C(F)(F)F)cc3F)[C@@H]2C(=O)O)cc1 [Example 43]	10
CN(c1ccc([C@H]2CCC[C@@H](C(=O)Nc3ccc(C(F)(F)F)cc3F)[C@@H]2C(=O)O)cc1)S(=O)(=O)c1ccc2ccn(C)c2c1 [Example 110]	3.98
CN(c1ccc([C@H]2CCC[C@@H](COc3ccc(C(F)(F)F)cc3)[C@@H]2C(=O)O)cc1)S(=O)(=O)c1ccc2c(c1)nc(CCN)n2C [Example 273]	5.01

Item Cc1nc2cc(S(=O)(=O)N(C)c3ccc([C@@H]4CCC[C@H](COc5ccc(C(F)(F)F)cc5)[C@H]4C(=O)O)cc3)cc([C@H]3CCCNC3)c2n1C (stereo in doubt) [Example 208, hydrochloride] has what recorded IC50?
1.58

====

Assignment: determine reported CC50 for the given compounds.
# Test system: SW48 human colorectal cancer cells (MSI-H cancer cells)
# ASSAY: SW48 cell viability, CellTiter-Glo, 120 hours (Example B)
# CONDITION_PARAMETERS: Homo sapiens, SW48, 120 h, read-out: SW48 pCC50, SW48 cell viability, 120 hours incubation (converted); Table 2
Answers are plain numbers, in nM.

Reference set, count: 8
COMPOUND	UNIT_ANNOTATION	CC50
Cc1nc2cc(S(=O)(=O)N(C)c3ccc([C@H]4C[C@@H](OCC5(C)COC5)C[C@@H](C(=O)Nc5ccc(C(F)(F)F)cc5F)[C@@H]4C(=O)O)cc3)ccc2n1C (stereo in doubt)	nM	79.4
CCO[C@@H]1C[C@H](C(=O)Nc2ccc(C(F)(F)F)cn2)[C@@H](C(=O)O)[C@H](c2ccc(N(C)S(=O)(=O)c3ccc4c(c3)nc(C)n4C)cc2)C1 (relative stereo)	nM	25100
CN(c1ccc([C@H]2CCC[C@@H](C(=O)Nc3ccc(C(F)(F)F)cc3F)[C@@H]2C(=O)O)cc1)S(=O)(=O)c1ccccc1	nM	1260
CN(c1ccc([C@H]2CCC[C@@H](C(=O)Nc3ccc(C(F)(F)F)cc3F)[C@@H]2C(=O)O)cc1)S(=O)(=O)c1cccc(C2CNC(=O)C2)c1 (stereo partly drawn)	nM	631
Cc1nc2cc(S(=O)(=O)N(C)c3ccc([C@H]4C[C@@H](OC[C@H]5COCCO5)C[C@@H](C(=O)Nc5ccc(C(F)(F)F)cc5F)[C@@H]4C(=O)O)cc3)ccc2n1C (relative stereo)	nM	200
Cc1nc2cc(S(=O)(=O)N(C)c3ccc([C@H]4CCC[C@@H](C(=O)Nc5ccc(C(F)(F)F)cc5F)[C@@H]4C(=O)O)cc3)cnc2n1C	nM	501
CN1CCC[C@@H](c2cccc(S(=O)(=O)N(C)c3ccc([C@H]4CCC[C@@H](COc5ccc(C(F)(F)F)cc5)[C@@H]4C(=O)O)cc3)c2)C1 (single isomer, unassigned)	nM	15800
Cc1nc2cc(S(=O)(=O)N(C)c3ccc([C@H]4CCC[C@@H](C(=O)Nc5ccc(C(F)(F)F)nc5)[C@@H]4C(=O)O)cc3)ccc2n1C	nM	1260

Hello, I would appreciate it if you could give CC50 for each entry below.
1. COCCO[C@@H]1C[C@H](C(=O)Nc2ccc(C(F)(F)F)cc2F)[C@@H](C(=O)O)[C@H](c2ccc(N(C)S(=O)(=O)c3ccc4c(c3)nc(C)n4C)cc2)C1 (stereo in doubt)
2. Cc1nc2cc(S(=O)(=O)N(C)c3ccc([C@H]4CCC[C@@H](C(=O)Nc5ccc(C(C)C)cc5)[C@H]4C(=O)O)cc3)ccc2n1C (single isomer, unassigned) [Example 77]
3. CN(c1ccc([C@H]2CCC[C@@H](C(=O)Nc3ccc(C(F)(F)F)cc3F)[C@@H]2C(=O)O)cc1)S(C)(=O)=O
4. CC(C)c1nc2cc(S(=O)(=O)N(C)c3ccc([C@H]4CCC[C@@H](C(=O)Nc5ccc(C(F)(F)F)cc5F)[C@@H]4C(=O)O)cc3)ccc2n1C
5. Cc1nc2cc(S(=O)(=O)N(C)c3ccc([C@H]4CCC[C@@H](C(=O)Nc5ccc(C(F)(F)F)cc5F)[C@@H]4C(=O)O)cc3)ccc2n1C (racemic)
6. Cc1oncc1-c1ccc([C@H]2CCC[C@@H](C(=O)Nc3ccc(C(F)(F)F)cc3F)[C@@H]2C(=O)O)cc1

[10000, 3980, 6310, 631, 1260, 7940]

Hello, I would appreciate it if you could give CC50 for each entry below.
1. Cc1nc2cc(S(=O)(=O)N(C)c3ccc([C@@H]4CCC[C@H](C(=O)Nc5ccc(C(F)(F)F)cc5F)[C@H]4C(=O)O)cc3F)ccc2n1C (single isomer, unassigned)
2. Cc1nc2cc(S(=O)(=O)N(C)c3ccc([C@H]4C[C@@H](N5CCC(F)(F)CC5)C[C@@H](C(=O)Nc5ccc(C(F)(F)F)cc5F)[C@@H]4C(=O)O)cc3)ccc2n1C (stereo in doubt)
3. CN1CCN(c2cc(S(=O)(=O)N(C)c3ccc([C@H]4CCC[C@@H](C(=O)Nc5ccc(C(F)(F)F)cc5F)[C@@H]4C(=O)O)cc3)cc3ccoc23)CC1
4. O=C(O)[C@@H]1[C@@H](c2ccc(-c3ccoc3)cc2)CCC[C@H]1C(=O)Nc1ccc(C(F)(F)F)cc1F
5. CN(c1ccc([C@H]2CCC[C@@H](C(=O)Nc3ccc(C(F)(F)F)cc3F)[C@@H]2C(=O)O)cc1)S(=O)(=O)c1ccc2nc(O)sc2c1
6. Cc1nc2cc(S(=O)(=O)N(C)c3ccc([C@H]4CCC[C@@H](C(=O)Nc5ccc(C(F)(F)F)cc5F)[C@@H]4C(=O)O)cc3)ccc2n1CCN(C)C

12600
126
794
12600
10000
126

Item Cc1nc2cc(S(=O)(=O)N(C)c3ccc([C@H]4CN(CC(F)(F)F)C[C@@H](C(=O)Nc5ccc(C(F)(F)F)cc5F)[C@@H]4C(=O)O)cc3)ccc2n1C (relative stereo) has what recorded CC50?
631
